Attribution: patent US20020147129A1

Target: embryonic chicken AT4 receptor (chicken)
Sequence (F1NNE7 entry or part of it): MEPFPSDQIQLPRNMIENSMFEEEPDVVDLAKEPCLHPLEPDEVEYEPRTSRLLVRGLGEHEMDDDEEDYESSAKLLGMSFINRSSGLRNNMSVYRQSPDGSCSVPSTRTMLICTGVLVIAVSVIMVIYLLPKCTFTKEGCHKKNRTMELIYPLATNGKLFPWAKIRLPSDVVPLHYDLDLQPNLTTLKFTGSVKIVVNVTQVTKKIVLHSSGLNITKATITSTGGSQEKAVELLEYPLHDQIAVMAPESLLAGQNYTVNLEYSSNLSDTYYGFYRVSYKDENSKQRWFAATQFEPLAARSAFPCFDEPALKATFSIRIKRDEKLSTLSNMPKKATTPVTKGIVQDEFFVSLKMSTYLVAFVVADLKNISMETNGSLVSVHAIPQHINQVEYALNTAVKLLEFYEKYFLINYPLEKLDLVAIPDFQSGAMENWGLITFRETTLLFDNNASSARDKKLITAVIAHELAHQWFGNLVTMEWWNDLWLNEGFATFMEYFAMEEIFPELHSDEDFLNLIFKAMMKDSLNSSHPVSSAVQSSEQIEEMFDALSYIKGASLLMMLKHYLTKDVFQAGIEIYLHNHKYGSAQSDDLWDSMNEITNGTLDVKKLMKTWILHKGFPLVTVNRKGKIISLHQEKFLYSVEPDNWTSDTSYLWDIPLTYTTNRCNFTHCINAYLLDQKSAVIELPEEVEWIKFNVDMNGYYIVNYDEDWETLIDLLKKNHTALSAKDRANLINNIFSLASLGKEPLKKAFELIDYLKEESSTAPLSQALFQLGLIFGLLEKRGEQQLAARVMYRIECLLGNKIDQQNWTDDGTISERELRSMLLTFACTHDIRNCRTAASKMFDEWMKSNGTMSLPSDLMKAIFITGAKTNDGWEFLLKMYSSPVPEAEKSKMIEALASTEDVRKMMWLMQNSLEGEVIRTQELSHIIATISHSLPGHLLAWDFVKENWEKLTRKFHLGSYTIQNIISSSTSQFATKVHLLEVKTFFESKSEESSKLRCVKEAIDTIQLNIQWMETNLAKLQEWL
Assay: competition for [125I]Ang IV binding, E13 chicken chorioallantoic membranes
pIC50: −log10 of the molar value. Where no end group is shown, it is not given here.
endpoint label: pIC50

INSERT INTO assay_data (binder, endpoint_label, measurement) VALUES
  ('VYIHPF (also: same id also used for [125I]Ang IV tracer, radioiodinated with chloramine T) [angiotensin IV]', 'pIC50', 7.74);
